Parameter Inhibition: see the listing below.
# Tested on: Plasmodium falciparum
# assay comment: GSK_TCMDC: Inhibition of Plasmodium falciparum 3D7 in whole red blood cells, using parasite LDH activity as an index of growth. Test compounds present at 2uM
# Type: functional

>  <compound>
COc1ccc2c(O)c(C3CCC(c4ccc(Cl)cc4)CC3)c(C)nc2c1 (centres undefined)

>  <Inhibition / %>
97

$$$$
>  <compound>
O=C(Nc1cccc(C(F)(F)F)c1)Nc1ccc2nonc2c1

>  <Inhibition / %>
98

$$$$
>  <compound>
COc1ccc2nccc([C@@H](O)CN3CCC(NCc4cc5ccc(Cl)cc5[nH]4)CC3)c2c1.O=C(O)C(=O)O

>  <Inhibition / %>
99

$$$$
>  <compound>
C=CCc1cc(OC)ccc1OCCCOc1c(C)nc(N)nc1N.Cl

>  <Inhibition / %>
92

$$$$
>  <compound>
CCOc1c(Cl)cc(Cl)cc1CNCCCNc1nc2ccccc2[nH]1.Cl

>  <Inhibition / %>
94

$$$$
>  <compound>
C=CCOC(=O)N1CCC(CNCc2ccc(-c3cccc(-c4nc5cc(F)ccc5[nH]4)c3)cc2)C1.O=C(O)C(F)(F)F (centres undefined)

>  <Inhibition / %>
100

$$$$
>  <compound>
COc1ccc(-c2nnc(Sc3ccc(C#N)c([N+](=O)[O-])c3)n2CC(C)C)cc1

>  <Inhibition / %>
97

$$$$
>  <compound>
CCOCCCn1c(=N)c(C(=O)NCc2ccc(OC)cc2)cc2c(=O)n3cccc(C)c3nc21

>  <Inhibition / %>
99

$$$$
>  <compound>
Cc1cc(NC(=O)Nc2ccc(Cl)cc2F)c2ccccc2n1

>  <Inhibition / %>
100

$$$$
>  <compound>
N#Cc1ccc(CN2CCC(Oc3ccc(NC(=O)c4cccs4)cc3)C2)cc1.O=C(O)C(F)(F)F (centres undefined)

>  <Inhibition / %>
82

$$$$
>  <compound>
CCNc1cc(C(=O)N[C@@H](Cc2ccccc2)[C@H](O)CN[C@H](C)C(C)(C)C)cc(N2CCCCS2(=O)=O)c1.Cl

>  <Inhibition / %>
95

$$$$
>  <compound>
Cc1cc(CNCC(CCNc2cc(=O)c3ccccc3[nH]2)NCc2cc(Br)cc(Br)c2)oc1C (centres undefined)

>  <Inhibition / %>
98

$$$$
>  <compound>
CCCCNc1nccc2ccc(-c3ccncc3)cc12

>  <Inhibition / %>
93

$$$$
>  <compound>
CCNc1cc(C)nc(Nc2ccc(NS(=O)(=O)c3cc(OC)ccc3OC)cc2)n1

>  <Inhibition / %>
100

$$$$
>  <compound>
COC(=O)c1cccc(NC(=O)NC2CCN(c3ccnc(Nc4cc(OC)c(OC)c(OC)c4)n3)C2)c1 (centres undefined)

>  <Inhibition / %>
99

$$$$
>  <compound>
O=C(NC1CCCCC1)C(c1cccs1)N(CCc1ccccc1)C(=O)c1ccco1 (centres undefined)

>  <Inhibition / %>
92

$$$$
>  <compound>
COc1ccc2nccc(N3CCC(SCCNCc4ccc5c(n4)NC(=O)CS5)C3)c2n1.Cl (centres undefined)

>  <Inhibition / %>
95

$$$$
>  <compound>
CC(=O)Nc1ccc(OCCCN(Cc2ccccc2OC(F)(F)F)c2ccc(C(F)(F)F)c(C#N)c2)c(Cl)c1

>  <Inhibition / %>
91

$$$$
>  <compound>
CN1CCN(Cc2ccc(-c3ccc4ncnc(Nc5ccc(OCc6ccccc6)cc5)c4c3)o2)CC1

>  <Inhibition / %>
97

$$$$

These data points were gathered from ChEMBL document CHEMBL1157539.
